target: T1, CD71 apical domain (human, UniProt P02786 189-383, limits assumed); experiment: solution ELISA screen (luminescence)
T1 construct: domain: apical domain
T1 sequence (P02786 189-383 limits assumed): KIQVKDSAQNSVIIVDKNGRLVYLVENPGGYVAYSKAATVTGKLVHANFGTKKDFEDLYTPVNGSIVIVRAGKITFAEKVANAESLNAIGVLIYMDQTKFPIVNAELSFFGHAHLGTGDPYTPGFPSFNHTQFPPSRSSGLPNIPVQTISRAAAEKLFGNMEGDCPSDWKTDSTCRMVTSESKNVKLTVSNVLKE
Metric name: RLU (RLU)

Binder | RLU [RLU]
SEQ ID NO 224 (designed binder, not shown: small tags and cut ends) MLPAPKNLVVSRVTEDSARLSWTAPDAAFDSFYIAYAEPRPDGEAILLRVPGSERSYDLTGLKPGTEYSVLIHGVKGGLLSSPLVAEFTT | 6.82e+06
SEQ ID NO 257 (designed binder, not shown: small tags and cut ends) MLPAPKNLVVSRVTEDSARLSWTAPDAAFDSFYIAYAEPRPDGEAIQLGVPGSERSYDLTGLKPGTEYSVLIHGVKGGLLSSPLRAYFTT | 4.84e+06
SEQ ID NO 266 (designed binder, not shown: small tags and cut ends) MLPAPKNLVVSRVTEDSARLSWTAPDAAFDSFYIAYAEPRPDGEAIRLQVPGSERSYDLTGLKPGTEYSVLIHGVKGGLLSSPLGASFTT | 4.23e+06
SEQ ID NO 211 (designed binder, not shown: small tags and cut ends) MLPAPKNLVVSRVTEDSARLSWTAPDAAFDSFYIAYAEPRPDGEAIQLHVPGSERSYDLTGLKPGTEYSVLIHGVKGGLLSSPLVAIFTT | 4.74e+06
SEQ ID NO 223 (designed binder, not shown: small tags and cut ends) MLPAPKNLVVSRVTEDSARLSWTAPDAAFDSFFIGYLEPQPPGEAIGLAVPGSERSYDLTGLKPGTEYNVTIQGVKGGFPSVPLQANFTT | 3.6e+06
SEQ ID NO 226 (designed binder, not shown: small tags and cut ends) MLPAPKNLVVSRVTEDSARLSWTAPDAAFDSFYIAYAEPRPDGEAIGLHVPGSERSYDLTGLKPGTEYSVLIHGVKGGLLSSPLTASFTT | 6.38e+06
SEQ ID NO 255 (designed binder, not shown: small tags and cut ends) MLPAPKNLVVSRVTEDSARLSWTAPDAAFDSFFIGYLEPQPPGEAILLFVPGSERSYDLTGLKPGTEYNVTIQGVKGGFPSTPLSASFTT | 7.08e+06
SEQ ID NO 234 (designed binder, not shown: small tags and cut ends) MLPAPKNLVVSRVTEDSARLSWTAPDAAFDSFYIAYAEPRPDGEAIVLVVPGSERSYDLTGLKPGTEYSVLIHGVKGGLLSSPLSAIFTT | 7.04e+06
SEQ ID NO 241 (designed binder, not shown: small tags and cut ends) MLPAPKNLVVSRVTEDSARLSWTAPDAAFDSFFIGYLEPQPPGEAIHLGVPGSERSYDLTGLKPGTEYNVTIQGVKGGFPSIPLFASFTT | 5.05e+06

# credit: patent US20220332795A1
